B1: Azoarcus group I ribozyme (parent)
chain: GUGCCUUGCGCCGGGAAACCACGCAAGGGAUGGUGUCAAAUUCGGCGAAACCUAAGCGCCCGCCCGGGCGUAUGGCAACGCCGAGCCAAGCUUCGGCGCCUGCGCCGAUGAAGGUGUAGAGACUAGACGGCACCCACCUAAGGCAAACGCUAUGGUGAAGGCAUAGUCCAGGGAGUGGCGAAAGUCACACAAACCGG

- Variants of: B1
- methodSummary: reverse-splicing fitness (ratio to wild type); higher = more active; in vitro selection; Mg2+ level not given
experimentalReadout: reverse-splicing fitness

Measured reverse-splicing fitness of C82U A111U A120G C150U C169A U176C : 0.0129

Others:
Measured reverse-splicing fitness of C82U A111G A120C A145G C150G C169G U176A : 0.00909

Measured reverse-splicing fitness of C82G A111G A145G C150U U176G : 0.068

Measured reverse-splicing fitness of C82U A111G A120C A145G C150G U176G : 0.0033

Measured reverse-splicing fitness of C82A A111U U176A : 0.0911

Measured reverse-splicing fitness of C82A A120G C150A U176G : 0.00837

Measured reverse-splicing fitness of C82A A120C A145C C169G : 0.0102

Measured reverse-splicing fitness of C82A A111G A120U A145G C150A U176C : 0.00808

Measured reverse-splicing fitness of C82U A111G A120G A145G C150A C169A U176C : 0.0196

Measured reverse-splicing fitness of C82U A111G A120C A145U C150A U176A : 0.0116

Measured reverse-splicing fitness of C82A A111U A120G A145G C150G C169A U176C : 0.0133

Measured reverse-splicing fitness of C82A A111G A120G A145G C150A C169A U176G : 0.00687

Measured reverse-splicing fitness of C82U A111U A120C C150A C169U U176A : 0.0229

The measurements presented in this section are drawn from the RNAGym collection of RNA variant scans (doi:10.1093/molbev/msab373).
